TARGET: T1, full-length Sudan GP (GPFL) (Sudan virus (SUDV), UniProt Q7T9D9 33-650)
T1 construct: also called Sudan GPFL; GP(S)FL
T1 sequence: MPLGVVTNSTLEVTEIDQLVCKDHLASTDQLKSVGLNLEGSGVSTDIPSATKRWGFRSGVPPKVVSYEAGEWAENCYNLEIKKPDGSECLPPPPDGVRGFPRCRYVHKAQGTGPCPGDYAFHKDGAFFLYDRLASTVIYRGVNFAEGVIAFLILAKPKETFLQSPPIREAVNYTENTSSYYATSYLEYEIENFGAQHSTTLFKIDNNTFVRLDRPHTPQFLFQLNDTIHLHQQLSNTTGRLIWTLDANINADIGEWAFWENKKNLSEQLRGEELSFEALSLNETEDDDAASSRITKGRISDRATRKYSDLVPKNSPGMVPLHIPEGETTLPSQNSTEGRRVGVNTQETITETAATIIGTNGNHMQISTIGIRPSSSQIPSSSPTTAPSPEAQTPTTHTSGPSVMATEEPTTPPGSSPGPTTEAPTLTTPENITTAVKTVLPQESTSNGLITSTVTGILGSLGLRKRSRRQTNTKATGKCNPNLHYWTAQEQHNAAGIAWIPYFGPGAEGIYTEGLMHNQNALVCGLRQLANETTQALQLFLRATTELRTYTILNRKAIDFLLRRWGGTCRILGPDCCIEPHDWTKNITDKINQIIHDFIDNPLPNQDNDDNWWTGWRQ
METHOD_DESCRIPTION: BLI, Fab, pH 7.4
RECORDED_METRIC: kon
Respond with the figure and its unit, in that order.

Name the reported kon value associated with the binder Fab generated from 315S (Fab, V domains shown, also called 315S Fab) VH: EVQLVESGGGVVQPGRSLRLSCAASGFTFKTYTMHWVRQAPGKGLEWVAVITDDGVNKKYADSVKGRFTISRDNSKNTLYLQMNSLRLEDTAVYYCARSVVVLAAYPLDYWGQGTMVTVSS VL: DIQMTQSPSSLSASVGDRVTITCRASQTISTYLHWYQQRPGKAPKLLIYAASSLQSGVPSRVSGSGSGTDFTLTITSLQPEDFATYYCLQTYSLPLTFGGGTNVEIK 36200 M⁻¹ s⁻¹

Next binder up: Fab generated from 102S (Fab, V domains shown) VH: EVQLVESGGGLVQPGGSLRLSCSASGFTFHSYDMNWARQAPGKGLEWVSEISSSGQSKNYADSVRGRFTISRDNAKNSLYLQINSLRSEDTAVYYCARVGFVAKFGSDFSITHGTYYLDYWGQGTLVTVSS VL: QLVLTQSPATLSLSPGERATLSCRASQSVSNYLAWYQQKPGQAPRLLIYDASNRAPGVPARFSGSGSGTDFSLTISSLEPEDFAVYYCLQRSNWPPWTFGQGTKVEIK 55300 M⁻¹ s⁻¹
